We begin with a simple list: items and their reported IC50.
# Test system: VZV strain Ellen
# PROTOCOL_SUMMARY: VZV Antiviral (ELISA) Assay in human foreskin fibroblast cells
# Type: cell-based, varicella-zoster virus
# MEASUREMENT_SETUP: Human alphaherpesvirus 3, Fibroblast, read-out: IC50 (ug/ml) VZV

COMPOUND | IC50
O=C(Nc1ccc(NC(=S)Nc2ccc(I)c(Cl)c2)cc1)c1ccccc1F [Example 916] | > 10 µg/mL
O=C(Nc1ccc(NC(=S)Nc2ccc(C(F)(F)F)c(Cl)c2)cc1)c1ccccc1F [Example 911] | > 10 µg/mL
O=C(Nc1ccc(NC(=S)Nc2ccccc2Cl)cc1)c1ccccc1F [Example 948] | > 10 µg/mL
COc1cccc(C(=O)Nc2ccc(NC(=S)Nc3cc(Cl)c(OC)c(Cl)c3)cc2)c1 [Example 875] | > 10 µg/mL
C[C@@H](NC(=S)Nc1ccc(NC(=O)c2ccccc2F)cc1)c1ccc(Cl)cc1 [Example 1014] | > 7.5 µg/mL
CC(NC(=S)Nc1ccc(NC(=O)c2ccccc2)cc1)c1ccc(F)cc1 (stereo not shown) [Example 758] | > 10 µg/mL
COc1ccc(C(=O)Nc2ccc(NC(=S)Nc3cc(Cl)c(OC)c(Cl)c3)cc2)cc1 [Example 880] | > 10 µg/mL
CC(NC(=S)Nc1ccc(NC(=O)c2ccccc2F)cc1)c1ccc(C#N)cc1 (stereo not shown) [Example 792] | > 7.5 µg/mL
C[C@@H](NC(=S)Nc1ccc(NC(=O)c2ccccc2F)cc1)c1ccccc1 [Example 1016] | > 7.5 µg/mL
CC(C)COc1ccc(NC(=S)Nc2ccc(NC(=O)c3ccccc3F)cc2)cc1Cl [Example 994] | > 10 µg/mL
